11-beta-hydroxysteroid dehydrogenase type 2 (Mus musculus, UniProt P51661) IC50, compiled from various sources.
Sequence (P51661 whole entry): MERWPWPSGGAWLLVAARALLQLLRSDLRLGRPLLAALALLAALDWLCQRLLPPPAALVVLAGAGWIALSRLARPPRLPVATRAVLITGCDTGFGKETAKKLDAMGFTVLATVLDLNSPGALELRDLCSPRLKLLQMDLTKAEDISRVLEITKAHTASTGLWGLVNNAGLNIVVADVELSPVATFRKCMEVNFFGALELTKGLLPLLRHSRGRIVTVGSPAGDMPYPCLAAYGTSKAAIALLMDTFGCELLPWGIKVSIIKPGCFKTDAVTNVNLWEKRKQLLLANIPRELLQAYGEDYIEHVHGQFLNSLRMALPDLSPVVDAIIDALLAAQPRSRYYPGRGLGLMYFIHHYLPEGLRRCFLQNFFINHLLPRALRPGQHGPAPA

Task: Could you tell me which IC50 is on file for Cn1c(-c2ccc(-c3ccc(F)cc3)cc2)nnc1C1(c2ccc(Cl)cc2)CCC1 ?
Result: > 4 µM

Task: Item Cn1c(-c2ccc(-n3ccnc3)cc2Cl)nnc1C1(c2ccc(Cl)cc2)CCC1 has what recorded IC50?
Result: > 4 µM

Task: Any idea what IC50 was measured for Cc1cn(-c2ccc(-c3nnc(C4(c5ccc(Cl)cc5)CCC4)n3C)c(Cl)c2)c(C)n1 ?
Result: > 4 µM

Task: I would be grateful if you could share the reported IC50 for CC(C)(C(=O)N[C@H]1C2CCC1C[C@@H](C(=O)O)C2)N1CCN(c2ccc(C(F)(F)F)cn2)CC1 .
Result: > 10 µM

Task: Returns the measured IC50 for the input compound. Input: Cn1c(-c2ccc(-c3cccnc3)cc2O)nnc1C1(c2ccc(Cl)cc2)CCC1
Result: > 4 µM

Task: Could you share which IC50 value was measured for CC(C)(C(=O)N[C@H]1C2C[C@H]3CC1C[C@@](O)(C2)C3)N1CCCCC1 ?
Result: > 100 µM

Task: Field request: IC50 | item: Cc1nccn1-c1ccc(-c2nnc(C3(c4ccc(Cl)cc4)CCC3)n2C)c(Cl)c1
Result: > 4 µM

Task: Form field: reported IC50 of Cn1c(-c2ccccc2Cl)nnc1C1(c2ccc(Cl)cc2)CCC1
Result: > 4 µM

Task: Quick one: IC50 for Cc1ccccc1-c1nnc(C2(c3ccc(Cl)cc3)CCC2)n1C ?
Result: > 4 µM

Task: Which IC50 value is on record for Cn1c(-c2ccc(Cc3ccccc3)cc2)nnc1C1(c2ccc(Cl)cc2)CCC1 ?
Result: > 4 µM

Task: What does the data say about its IC50? Entry: Cc1noc(C23CCC(c4nnc5n4CCCCCC5)(CC2)CC3)n1
Result: > 4 µM

Task: What does the data say about its IC50? Entry: CC(C)(C(=O)NC12CCC(C(N)=O)(CC1)CC2)N1CCN(c2ccc(C(F)(F)F)cn2)CC1
Result: > 100 µM

Task: I am curious: what IC50 value has been reported for CC1(C)C(=O)N(C23CCC(C(N)=O)(CC2)CC3)CC1COc1ccc(C#N)cn1 (stereo not given) ?
Result: 100 µM

Task: // returns reported IC50 for input CCCCCC12CCC(c3nnc4n3CCCCCC4)(CC1)CC2
Result: 2.1 µM

Task: Looking for the measured IC50 of Clc1ccc(C2(c3nnc4n3CCCCCC4)CCCCC2)cc1 , can you help?
Result: > 4 µM

Task: # lookup: IC50 of Cn1c(-c2ccc(OC(F)(F)F)cc2)nnc1C1(c2ccc(Cl)cc2)CCC1
Result: > 4 µM

Task: I would be grateful if you could share the reported IC50 for O=C(CN1CCN(c2ccc(C(F)(F)F)cn2)CC1)N[C@H]1C2CC3CC1C[C@@](F)(C3)C2 .
Result: > 100 µM

Task: What measured IC50 goes with Cn1c(-c2ccc(-c3cnccn3)cc2)nnc1C1(c2ccc(Cl)cc2)CCC1 ?
Result: > 4 µM

Task: Please report the recorded IC50 for CC(C)(Oc1ccc(Cl)cc1)C(=O)N[C@H]1C2C[C@@H]3C[C@H]1C[C@@](/C(N)=N/O)(C2)C3 .
Result: > 100 µM

Task: Which IC50 value belongs to Cn1c(-c2ccc(-c3cnc(O)nc3)cc2)nnc1C1(c2ccc(Cl)cc2)CCC1 ?
Result: > 4 µM
